# Measurement Target: Beta-lactamase (Enterobacter cloacae)
# Sequence (P05364 whole entry): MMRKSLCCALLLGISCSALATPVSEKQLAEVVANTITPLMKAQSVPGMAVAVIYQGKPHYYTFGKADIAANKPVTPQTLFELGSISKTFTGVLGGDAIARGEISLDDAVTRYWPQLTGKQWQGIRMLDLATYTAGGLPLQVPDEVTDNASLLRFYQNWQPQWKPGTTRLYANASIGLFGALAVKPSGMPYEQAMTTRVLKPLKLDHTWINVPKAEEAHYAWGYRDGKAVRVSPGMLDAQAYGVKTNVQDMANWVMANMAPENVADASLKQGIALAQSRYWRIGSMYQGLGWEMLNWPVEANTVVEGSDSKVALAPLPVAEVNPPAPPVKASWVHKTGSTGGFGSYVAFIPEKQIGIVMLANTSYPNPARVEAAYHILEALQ
# Protocol: Inhibition of Enterobacter cloacae P99 beta-lactamase assessed as inhibition of nitrocefin hydrolysis pre-incubated for 5 mins by microtiter plate assay
Property Measured: pIC50
Numbers only, as −log10 of the molar value.

Return reported pIC50; argument: CC/C=C\C/C=C\C/C=C\CCCCCCCc1cccc(O)c1C(=O)O
4.35

* * *

# Measurement Target: Beta-lactamase TEM (Escherichia coli, UniProt P62593)
# Sequence (P62593 whole entry): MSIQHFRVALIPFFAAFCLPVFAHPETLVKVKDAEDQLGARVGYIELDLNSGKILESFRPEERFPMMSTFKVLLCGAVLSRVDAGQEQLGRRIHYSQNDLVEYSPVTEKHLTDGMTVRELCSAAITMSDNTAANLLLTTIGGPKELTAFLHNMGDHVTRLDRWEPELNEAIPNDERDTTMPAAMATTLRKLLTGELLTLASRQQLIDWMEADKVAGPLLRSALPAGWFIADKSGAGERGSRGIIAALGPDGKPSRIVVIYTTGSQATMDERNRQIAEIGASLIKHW
# Protocol: Inhibition of Escherichia coli JT4 beta-lactamase TEM1 assessed as inhibition of nitrocefin hydrolysis preincubated for 5 mins by microtiter plate assay
Property Measured: IC50
I'd appreciate it if you included the unit after the number.

Return reported IC50; argument: CC/C=C\C/C=C\C/C=C\CCCCCCCc1cccc(O)c1C(=O)O
13.5 µM

Recorded values, source ChEMBL document CHEMBL1149069.
